Listed here are compounds together with their documented Kd.
System: DCAF1 WD40 domain (residues 1077-1390) (Homo sapiens, UniProt Q9Y4B6)
Construct: DCAF1 WD40 domain (residues 1077-1390)
Sequence (Q9Y4B6 1077-1390): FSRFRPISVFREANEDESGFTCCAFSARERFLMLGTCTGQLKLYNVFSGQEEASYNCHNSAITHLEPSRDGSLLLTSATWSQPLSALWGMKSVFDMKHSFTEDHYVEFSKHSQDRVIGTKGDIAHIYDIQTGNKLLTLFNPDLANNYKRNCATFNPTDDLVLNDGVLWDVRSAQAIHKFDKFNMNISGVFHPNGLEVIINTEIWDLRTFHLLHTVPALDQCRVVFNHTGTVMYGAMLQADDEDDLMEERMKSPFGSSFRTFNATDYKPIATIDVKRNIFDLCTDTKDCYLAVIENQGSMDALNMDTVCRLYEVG
Measurement description: DCAF1 binding assay by SPR (Biacore 8K+), DCAF1-3 KD
Cond: 25 °C, read-out: DCAF1-3 SPR (KD)

In the examples that follow, each entry is paired with its recorded Kd.
> print(dat)
                                   compound                                    system  observed.property        result
1  CS(=O)(=O)CCN(c1cc(N2CCOCC2)ccn1)[C@@H]1CCCN(c2cccc(F)c2)C1 [I-292]  DCAF1 WD40 domain (residues 1077-1390) (Homo sapiens, UniProt Q9Y4B6)                 Kd      > 200 µM
2  Cc1cccc(N2CCC[C@@H]3[C@H]2CCN3c2cc(N3CC4CC(C4)C3)ccn2)c1 [I-706]  DCAF1 WD40 domain (residues 1077-1390) (Homo sapiens, UniProt Q9Y4B6)                 Kd       < 10 µM
3  NC(=O)C[C@H](NC(=O)c1cn[nH]c1Cc1ccccc1)c1cccc(Cl)c1 [I-543]  DCAF1 WD40 domain (residues 1077-1390) (Homo sapiens, UniProt Q9Y4B6)                 Kd       < 10 µM
4  c1ccc2c(N3CCC[C@@H](Nc4nccc(N5CCOCC5)n4)C3)nccc2c1 [I-36]  DCAF1 WD40 domain (residues 1077-1390) (Homo sapiens, UniProt Q9Y4B6)                 Kd  10 to 100 µM

Note: attention shifts to another entry.
Ask: Item NC(=O)C[C@H](NC(=O)c1cn[nH]c1-c1ccccc1F)c1cccnc1 [I-131] has what recorded Kd?
Result: > 200 µM
